Sourced from patent US4565811A

PROTOCOL_DESCRIPTION: Acute toxicity of US in the rat by intravenous route
Format: in vivo
CONDITION_DETAILS: rat, in vivo, 600 mg/kg
OUTCOME_MEASURE: mortality at 192 h (%)
The response must be a number in % with no trailing unit.

// sample CC(CCC(=O)O)C1CCC2C3C(OS(=O)(=O)O)CC4CC(OS(=O)(=O)O)CCC4(C)C3CCC12C (stereo not shown) , its mortality at 192 h was 0

====

PROTOCOL_DESCRIPTION: Acute toxicity of US in the rat by oral administration
Format: in vivo
CONDITION_DETAILS: rat, in vivo, 6000 mg/kg
OUTCOME_MEASURE: mortality at 192 h (%)
The response must be a number in % with no trailing unit.

// sample CC(CCC(=O)O)C1CCC2C3C(OS(=O)(=O)O)CC4CC(OS(=O)(=O)O)CCC4(C)C3CCC12C (stereo not shown) , its mortality at 192 h was 40

====

PROTOCOL_DESCRIPTION: Acute toxicity of US in the rat by oral administration
Format: in vivo
CONDITION_DETAILS: rat, in vivo, 2000 mg/kg
OUTCOME_MEASURE: mortality at 192 h (%)
The response must be a number in % with no trailing unit.

// sample CC(CCC(=O)O)C1CCC2C3C(OS(=O)(=O)O)CC4CC(OS(=O)(=O)O)CCC4(C)C3CCC12C (stereo not shown) , its mortality at 192 h was 0

====

PROTOCOL_DESCRIPTION: Acute toxicity of US in the rat by intravenous route
Assay type: in vivo
CONDITION_DETAILS: rat, in vivo, 700 mg/kg
OUTCOME_MEASURE: mortality at 192 h
# do not omit the unit; it follows the number

// sample CC(CCC(=O)O)C1CCC2C3C(OS(=O)(=O)O)CC4CC(OS(=O)(=O)O)CCC4(C)C3CCC12C (stereo not shown) , its mortality at 192 h was 10%

====

PROTOCOL_DESCRIPTION: Acute toxicity of US in the rat by intraperitoneal administration
Format: in vivo
CONDITION_DETAILS: rat, in vivo, ip, 500 mg/kg
OUTCOME_MEASURE: mortality at 192 h

// sample CC(CCC(=O)O)C1CCC2C3C(OS(=O)(=O)O)CC4CC(OS(=O)(=O)O)CCC4(C)C3CCC12C (stereo not shown) , its mortality at 192 h was 0%

====

PROTOCOL_DESCRIPTION: Acute toxicity of US in the rat by intraperitoneal administration
Assay type: in vivo
CONDITION_DETAILS: rat, in vivo, ip, 700 mg/kg
OUTCOME_MEASURE: mortality at 192 h (%)
The response must be a number in % with no trailing unit.

// sample CC(CCC(=O)O)C1CCC2C3C(OS(=O)(=O)O)CC4CC(OS(=O)(=O)O)CCC4(C)C3CCC12C (stereo not shown) , its mortality at 192 h was 0

====

PROTOCOL_DESCRIPTION: Acute toxicity of US in the rat by intraperitoneal administration
Assay type: in vivo
CONDITION_DETAILS: rat, in vivo, ip, 800 mg/kg
OUTCOME_MEASURE: mortality at 192 h (%)
The response must be a number in % with no trailing unit.

// sample CC(CCC(=O)O)C1CCC2C3C(OS(=O)(=O)O)CC4CC(OS(=O)(=O)O)CCC4(C)C3CCC12C (stereo not shown) [US] , its mortality at 192 h was 0
